viability, T/C values for the compounds below.
# Tested on: 755483-174-R-J1-PDC complex spheroid growth, percent test/control;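 also: spheroids exposed to compounds for seven days before readout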
# Experiment description: Anticancer human tumor 755483-174-R-J1-PDC patient-derived rhabdomyosarcoma cell line growth inhibition [Asc]
# Recorded conditions: second compound 10 µM; first compound 1 µM; stronger effect = lower value
# unit: % | format: bare number

Reported 755483-174-R-J1-PDC complex spheroid growth, percent test/control viability, T/C for item CCN1CCN(Cc2ccc(Nc3ncc(F)c(-c4cc(F)c5nc(C)n(C(C)C)c5c4)n3)nc2)CC1 + Cc1c(S(C)(=O)=O)c(-c2cc(F)cc(N3CCN(c4ccc(NS(=O)(=O)c5ccc(NC(CCN6CCC(C(=O)OCCCP(=O)(O)O)CC6)CSc6ccccc6)c(S(=O)(=O)C(F)(F)F)c5)cc4)CC3)c2)c(-c2ccc(Cl)cc2)n1C(C)C was 70.9

---
Here C=C(F)C(=O)N1CCN(c2nc(OCC3CCCN3C)nc3c2CCN(c2cccc4cccc(Cl)c24)C3)CC1CC#N (stereo not drawn) + Cc1c(S(C)(=O)=O)c(-c2cc(F)cc(N3CCN(c4ccc(NS(=O)(=O)c5ccc(NC(CCN6CCC(C(=O)OCCCP(=O)(O)O)CC6)CSc6ccccc6)c(S(=O)(=O)C(F)(F)F)c5)cc4)CC3)c2)c(-c2ccc(Cl)cc2)n1C(C)C was tested on 755483-174-R-J1-PDC complex spheroid growth, percent test/control, and its viability, T/C came to 20.6

So the reported viability, T/C for O=C(c1cc(Cc2n[nH]c(=O)c3ccccc23)ccc1F)N1CCN(C(=O)C2CC2)CC1 + Cc1c(S(C)(=O)=O)c(-c2cc(F)cc(N3CCN(c4ccc(NS(=O)(=O)c5ccc(NC(CCN6CCC(C(=O)OCCCP(=O)(O)O)CC6)CSc6ccccc6)c(S(=O)(=O)C(F)(F)F)c5)cc4)CC3)c2)c(-c2ccc(Cl)cc2)n1C(C)C , on 755483-174-R-J1-PDC complex spheroid growth, percent test/control, turned out to be 33.2

Kindly note: 755483-174-R-J1-PDC complex spheroid growth, percent test/control, COc1c(OCCCN2CCOCC2)ccc2c3n(c(=NC(=O)c4cnc(N)nc4)nc12)CCN3 + Cc1c(S(C)(=O)=O)c(-c2cc(F)cc(N3CCN(c4ccc(NS(=O)(=O)c5ccc(NC(CCN6CCC(C(=O)OCCCP(=O)(O)O)CC6)CSc6ccccc6)c(S(=O)(=O)C(F)(F)F)c5)cc4)CC3)c2)c(-c2ccc(Cl)cc2)n1C(C)C , viability, T/C value reported: 1.7

For the compound C#Cc1c(F)ccc2cc(O)cc(-c3ncc4c(N5CC6CCC(C5)N6)nc(OCC56CCCN5CC(F)C6)nc4c3F)c12 (stereo not drawn) + Cc1c(S(C)(=O)=O)c(-c2cc(F)cc(N3CCN(c4ccc(NS(=O)(=O)c5ccc(NC(CCN6CCC(C(=O)OCCCP(=O)(O)O)CC6)CSc6ccccc6)c(S(=O)(=O)C(F)(F)F)c5)cc4)CC3)c2)c(-c2ccc(Cl)cc2)n1C(C)C , the measured viability, T/C on 755483-174-R-J1-PDC complex spheroid growth, percent test/control was 35.9

Noted viability, T/C for CNC(C)C(=O)NC1CN(S(=O)(=O)c2cccc(S(=O)(=O)N3CCC4CCC(C(=O)NC(c5ccccc5)c5ccccc5)N4C(=O)C(NC(=O)C(C)NC)C3)c2)CCC2CCC(C(=O)NC(c3ccccc3)c3ccccc3)N2C1=O (stereo not drawn) + Cc1c(S(C)(=O)=O)c(-c2cc(F)cc(N3CCN(c4ccc(NS(=O)(=O)c5ccc(NC(CCN6CCC(C(=O)OCCCP(=O)(O)O)CC6)CSc6ccccc6)c(S(=O)(=O)C(F)(F)F)c5)cc4)CC3)c2)c(-c2ccc(Cl)cc2)n1C(C)C , tested on 755483-174-R-J1-PDC complex spheroid growth, percent test/control: 7.68

Tested on 755483-174-R-J1-PDC complex spheroid growth, percent test/control: O=C(c1ccc(F)c(F)c1Nc1ccc(I)cc1F)N1CC(O)([C@@H]2CCCCN2)C1 + Cc1c(S(C)(=O)=O)c(-c2cc(F)cc(N3CCN(c4ccc(NS(=O)(=O)c5ccc(NC(CCN6CCC(C(=O)OCCCP(=O)(O)O)CC6)CSc6ccccc6)c(S(=O)(=O)C(F)(F)F)c5)cc4)CC3)c2)c(-c2ccc(Cl)cc2)n1C(C)C . Observed viability, T/C: 2.13

Known value: 755483-174-R-J1-PDC complex spheroid growth, percent test/control viability, T/C of the compound C=CC(=O)N1CCN(c2nc(=O)n(-c3c(C)ccnc3C(C)C)c3nc(-c4c(O)cccc4F)c(F)cc23)C(C)C1 (stereo not drawn) + Cc1c(S(C)(=O)=O)c(-c2cc(F)cc(N3CCN(c4ccc(NS(=O)(=O)c5ccc(NC(CCN6CCC(C(=O)OCCCP(=O)(O)O)CC6)CSc6ccccc6)c(S(=O)(=O)C(F)(F)F)c5)cc4)CC3)c2)c(-c2ccc(Cl)cc2)n1C(C)C equals 42.6
